target: tyrosinase (Agaricus bisporus, UniProt C7FF04); assay: Tyrosinase inhibitory assay; assay type: biochemical; settings: read-out: % inhibition of tyrosinase
Sequence (C7FF04 whole entry): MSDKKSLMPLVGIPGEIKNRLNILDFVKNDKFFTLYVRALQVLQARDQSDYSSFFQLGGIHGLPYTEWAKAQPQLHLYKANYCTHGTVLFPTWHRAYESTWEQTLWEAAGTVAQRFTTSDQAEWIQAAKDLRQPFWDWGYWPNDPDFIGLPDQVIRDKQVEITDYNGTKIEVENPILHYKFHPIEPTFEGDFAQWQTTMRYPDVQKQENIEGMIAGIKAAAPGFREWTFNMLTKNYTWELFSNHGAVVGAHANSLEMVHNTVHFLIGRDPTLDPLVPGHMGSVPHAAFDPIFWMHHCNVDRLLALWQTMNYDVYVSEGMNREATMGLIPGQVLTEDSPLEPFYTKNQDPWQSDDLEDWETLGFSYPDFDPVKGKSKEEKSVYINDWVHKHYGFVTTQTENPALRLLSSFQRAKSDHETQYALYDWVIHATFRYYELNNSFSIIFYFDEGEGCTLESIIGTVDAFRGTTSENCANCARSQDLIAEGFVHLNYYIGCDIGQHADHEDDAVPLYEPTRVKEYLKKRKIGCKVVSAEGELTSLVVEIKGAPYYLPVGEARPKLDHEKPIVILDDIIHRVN

Molecule | inhibition at 50 µM
Cc1ccccc1NC(=O)CSc1nc2ccccc2cc1C=Nn1c(S)nnc1-c1ccccc1 [12h] | 46%
O=C(CSc1nc2ccccc2cc1C=Nn1c(S)nnc1-c1ccccc1)Nc1ccccc1 [12a] | 32.2%
Cc1cccc(NC(=O)CSc2nc3ccccc3cc2C=Nn2c(S)nnc2-c2ccccc2)c1C [12i] | 43.8%
Cc1ccc(NC(=O)CSc2nc3ccccc3cc2C=Nn2c(S)nnc2-c2ccccc2)cc1 [12g] | 51.4%
O=C(CSc1nc2ccccc2cc1C=Nn1c(S)nnc1-c1ccccc1)NCCc1ccccc1 [12j] | 86.6%
O=C(CSc1nc2ccccc2cc1C=Nn1c(S)nnc1-c1ccccc1)Nc1ccccc1Cl [12b] | 55.7%
O=C(CSc1nc2ccccc2cc1C=Nn1c(S)nnc1-c1ccccc1)Nc1ccc(Cl)cc1 [12d] | 66%
O=C(CSc1nc2ccccc2cc1C=Nn1c(S)nnc1-c1ccccc1)Nc1ccc(Cl)cc1Cl [12e] | 48.3%
COc1ccc(NC(=O)CSc2nc3ccccc3cc2C=Nn2c(S)nnc2-c2ccccc2)cc1 [12f] | 40.9%

---

molecular target: UniProt:C7FF04; test: Enzyme kinetic study; assay type: biochemical

Compound | Tested System | Reading Unit | Ki
O=C(CSc1nc2ccccc2cc1C=Nn1c(S)nnc1-c1ccccc1)NCCc1ccccc1 [12j] | UniProt:C7FF04 | µM | 9.06

Source of measurements: paper PMC12259978
